Molecular target: M-phase phosphoprotein 8 (Homo sapiens) (UniProt Q99549)
Sequence (Q99549 whole entry, looked up): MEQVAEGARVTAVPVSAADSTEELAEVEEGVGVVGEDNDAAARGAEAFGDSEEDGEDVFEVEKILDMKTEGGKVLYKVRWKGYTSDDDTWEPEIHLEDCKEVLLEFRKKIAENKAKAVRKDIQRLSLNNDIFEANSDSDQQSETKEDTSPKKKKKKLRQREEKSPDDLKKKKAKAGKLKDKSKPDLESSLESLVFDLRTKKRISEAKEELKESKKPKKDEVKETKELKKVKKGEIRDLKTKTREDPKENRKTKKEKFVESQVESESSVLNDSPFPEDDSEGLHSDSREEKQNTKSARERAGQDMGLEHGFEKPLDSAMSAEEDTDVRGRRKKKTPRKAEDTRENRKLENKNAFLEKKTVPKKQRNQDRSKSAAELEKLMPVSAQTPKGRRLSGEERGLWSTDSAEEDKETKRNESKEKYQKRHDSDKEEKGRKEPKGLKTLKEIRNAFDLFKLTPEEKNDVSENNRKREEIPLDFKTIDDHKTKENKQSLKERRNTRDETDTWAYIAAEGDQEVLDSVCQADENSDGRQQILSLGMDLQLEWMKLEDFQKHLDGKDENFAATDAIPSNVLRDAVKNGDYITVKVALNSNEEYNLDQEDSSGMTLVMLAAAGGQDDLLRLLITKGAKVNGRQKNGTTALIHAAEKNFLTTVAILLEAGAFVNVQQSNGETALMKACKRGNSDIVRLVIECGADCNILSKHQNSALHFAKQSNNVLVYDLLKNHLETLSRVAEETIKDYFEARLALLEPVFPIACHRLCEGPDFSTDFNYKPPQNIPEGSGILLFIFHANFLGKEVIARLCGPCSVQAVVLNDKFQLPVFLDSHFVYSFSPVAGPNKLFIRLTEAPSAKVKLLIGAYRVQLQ
Assay: qHTS Validation Assay for Inhibitors for MPP8 Chromodomain Interactions with Methylated Histone Tails (AID 488949); further: nearly all actives have a fitted effect of over 55% in size
Conditions: AlphaScreen MPP8 binding to H3K9me3 peptide; series mostly up to 57.1 µM
Results filed as inconclusive are left out. Calls of active or inactive are those of the source. The call rests on the fitted dose curve; in most records, active means well fitted inhibition curve with a large enough effect; inconclusive means small, poorly fitted or top-dose-only effect; inactive means no such curve, though single readings can be large or run the other way.
Outcome codes: label 1 for active, label 0 for inactive

Molecule: CCCCCN(CCCCC)C(=O)C(CCC(=O)O)NC(=O)c1ccc(Cl)c(Cl)c1 (configuration not stated)
System: M-phase phosphoprotein 8 (Homo sapiens) (UniProt Q99549)
Assigned class: label 0
//
Molecule: NC(N)=NC(=O)Cc1c(Cl)cccc1Cl
System: M-phase phosphoprotein 8 (Homo sapiens) (UniProt Q99549)
Assigned class: label 0
//
Molecule: CN(C(=O)CCCOc1ccc2[nH]c(=O)ccc2c1)C1CCCCC1
System: M-phase phosphoprotein 8 (Homo sapiens) (UniProt Q99549)
Assigned class: label 0
//
Molecule: CC(C)(C)c1ccc(C(=O)CCCN2CCC(OC(c3ccccc3)c3ccccc3)CC2)cc1
System: M-phase phosphoprotein 8 (Homo sapiens) (UniProt Q99549)
Assigned class: label 0
//
Molecule: CNCCC(Oc1ccccc1OC)c1ccccc1 (configuration not stated)
System: M-phase phosphoprotein 8 (Homo sapiens) (UniProt Q99549)
Assigned class: label 0
//
Molecule: Nc1ncn([C@@H]2O[C@H](CO)[C@@H](O)[C@H]2O)c(=O)n1
System: M-phase phosphoprotein 8 (Homo sapiens) (UniProt Q99549)
Assigned class: label 0
//
Molecule: COC(=O)[C@H]1[C@H]2C[C@@H]3c4[nH]c5cc(OC)ccc5c4CCN3C[C@H]2C[C@@H](OC(=O)c2cc(OC)c(OC)c(OC)c2)[C@@H]1OC
System: M-phase phosphoprotein 8 (Homo sapiens) (UniProt Q99549)
Assigned class: label 1
//
Molecule: NC/C=C/C(=O)O
System: M-phase phosphoprotein 8 (Homo sapiens) (UniProt Q99549)
Assigned class: label 0
//
Molecule: CC(N=C(NC#N)Nc1ccncc1)C(C)(C)C (configuration not stated)
System: M-phase phosphoprotein 8 (Homo sapiens) (UniProt Q99549)
Assigned class: label 0
//
Molecule: CN(C)CC/C=C1\c2ccccc2COc2ccccc21
System: M-phase phosphoprotein 8 (Homo sapiens) (UniProt Q99549)
Assigned class: label 0
//
Molecule: CCCN1C[C@H](CSC)C[C@@H]2c3cccc4[nH]cc(c34)C[C@H]21
System: M-phase phosphoprotein 8 (Homo sapiens) (UniProt Q99549)
Assigned class: label 0
//
Molecule: CCn1cc(C(=O)O)c(=O)c2cc3c(cc21)OCO3
System: M-phase phosphoprotein 8 (Homo sapiens) (UniProt Q99549)
Assigned class: label 0
//
Molecule: CC(=O)Nc1nnc(S(N)(=O)=O)s1
System: M-phase phosphoprotein 8 (Homo sapiens) (UniProt Q99549)
Assigned class: label 0
//
Molecule: Fc1ccc(C(c2ccc(F)cc2)N2CCN(C/C=C/c3ccccc3)CC2)cc1
System: M-phase phosphoprotein 8 (Homo sapiens) (UniProt Q99549)
Assigned class: label 0
//
Molecule: CCNC(=O)N1CCN(CCCC(c2ccc(F)cc2)c2ccc(F)cc2)CC1
System: M-phase phosphoprotein 8 (Homo sapiens) (UniProt Q99549)
Assigned class: label 0
//
Molecule: CC1=NS(=O)(=O)c2cc(Cl)ccc2N1
System: M-phase phosphoprotein 8 (Homo sapiens) (UniProt Q99549)
Assigned class: label 0
//
Molecule: CN(C)C/C=C(/c1ccc(Br)cc1)c1cccnc1
System: M-phase phosphoprotein 8 (Homo sapiens) (UniProt Q99549)
Assigned class: label 0
//
Molecule: NS(=O)(=O)c1cc2c(cc1Cl)NC(C1CC3C=CC1C3)NS2(=O)=O (configuration not stated)
System: M-phase phosphoprotein 8 (Homo sapiens) (UniProt Q99549)
Assigned class: label 0
//
Molecule: O=C(O)CP(=O)(O)O
System: M-phase phosphoprotein 8 (Homo sapiens) (UniProt Q99549)
Assigned class: label 0
//
Molecule: COc1cc(C(=O)OCCCN2CCCN(CCCOC(=O)c3cc(OC)c(OC)c(OC)c3)CC2)cc(OC)c1OC
System: M-phase phosphoprotein 8 (Homo sapiens) (UniProt Q99549)
Assigned class: label 0
//
Molecule: COCCc1ccc(OCC(O)CNC(C)C)cc1 (configuration not stated)
System: M-phase phosphoprotein 8 (Homo sapiens) (UniProt Q99549)
Assigned class: label 0
//
Molecule: CC(C)(Oc1ccc(CCNC(=O)c2ccc(Cl)cc2)cc1)C(=O)O
System: M-phase phosphoprotein 8 (Homo sapiens) (UniProt Q99549)
Assigned class: label 0
//
Molecule: OC(CCN1CCCCC1)(c1ccccc1)C1CCCCC1 (configuration not stated)
System: M-phase phosphoprotein 8 (Homo sapiens) (UniProt Q99549)
Assigned class: label 0
//
Molecule: NCCCNCCSP(=O)(O)O
System: M-phase phosphoprotein 8 (Homo sapiens) (UniProt Q99549)
Assigned class: label 0
//
Molecule: CCc1cccc(N(C)C(N)=Nc2cccc3ccccc23)c1
System: M-phase phosphoprotein 8 (Homo sapiens) (UniProt Q99549)
Assigned class: label 0
//
Molecule: O=C(CCNNC(=O)c1ccncc1)NCc1ccccc1
System: M-phase phosphoprotein 8 (Homo sapiens) (UniProt Q99549)
Assigned class: label 0
//
Molecule: Cc1scc2c1N(C(=O)CN1CCN(C)CC1)c1ccccc1NC2=O
System: M-phase phosphoprotein 8 (Homo sapiens) (UniProt Q99549)
Assigned class: label 0
//
Molecule: CCN(CC)CCOCCOC(=O)C1(c2ccccc2)CCCC1
System: M-phase phosphoprotein 8 (Homo sapiens) (UniProt Q99549)
Assigned class: label 0
//
Molecule: CC(=O)OCC1=C(C(=O)O)N2C(=O)[C@@H](NC(=O)Cc3cccs3)[C@H]2SC1
System: M-phase phosphoprotein 8 (Homo sapiens) (UniProt Q99549)
Assigned class: label 0
//
Molecule: Cc1ccc(S(=O)(=O)NC(=O)NN2CCCCCC2)cc1
System: M-phase phosphoprotein 8 (Homo sapiens) (UniProt Q99549)
Assigned class: label 0
//
Molecule: c1ccc2c(c1)CCCC2C1=NCCN1 (configuration not stated)
System: M-phase phosphoprotein 8 (Homo sapiens) (UniProt Q99549)
Assigned class: label 0
//
Molecule: COCC(=O)O[C@]1(CCN(C)CCCc2nc3ccccc3[nH]2)CCc2cc(F)ccc2[C@@H]1C(C)C
System: M-phase phosphoprotein 8 (Homo sapiens) (UniProt Q99549)
Assigned class: label 0
//
Molecule: C[C@H](CS)C(=O)N1CCC[C@H]1C(=O)O
System: M-phase phosphoprotein 8 (Homo sapiens) (UniProt Q99549)
Assigned class: label 0
//
Molecule: C[N+](C)(C)CCOC(N)=O
System: M-phase phosphoprotein 8 (Homo sapiens) (UniProt Q99549)
Assigned class: label 0
//
Molecule: CN(C)CC[C@@H](c1ccc(Br)cc1)c1ccccn1
System: M-phase phosphoprotein 8 (Homo sapiens) (UniProt Q99549)
Assigned class: label 0
//
Molecule: Nc1c2c(nc3ccccc13)CCCC2O (configuration not stated)
System: M-phase phosphoprotein 8 (Homo sapiens) (UniProt Q99549)
Assigned class: label 0
//
Molecule: CCN1CCc2nc(N)oc2CC1
System: M-phase phosphoprotein 8 (Homo sapiens) (UniProt Q99549)
Assigned class: label 0
